target: Tubulin (Bos taurus, UniProt Q6B856+Q862L2+Q862F3); experiment: Inhibition of bovine brain tubulin polymerization incubated for 20 mins by spectrophotometry
Measurement type: IC50 (nM)
// note: answer is a bare numeric in nM

Solved cases below.
>  <Compound string>
Cc1ccc(-c2cc(NC(=O)/C=C/c3ccccc3)n[nH]2)cc1

>  <Assay result>
3120

$$$$
>  <Compound string>
Cc1ccc(/C=C/C(=O)Nc2cc(-c3ccc(C)cc3)[nH]n2)cc1

>  <Assay result>
3360

$$$$
>  <Compound string>
Cc1ccc(/C=C/C(=O)Nc2cc(-c3ccc(Br)cc3)[nH]n2)cc1

>  <Assay result>
2760

$$$$
>  <Compound string>
Cc1ccc(-c2cc(NC(=O)/C=C/c3ccc(F)cc3)n[nH]2)cc1

>  <Assay result>
1920

$$$$
>  <Compound string>
Cc1ccc(-c2cc(NC(=O)/C=C/c3ccc(C(F)(F)F)cc3)n[nH]2)cc1

>  <Assay result>
1530

$$$$
>  <Compound string>
COc1ccc(/C=C/C(=O)Nc2cc(-c3ccc(Br)cc3)[nH]n2)cc1

>  <Assay result>
1350

$$$$
>  <Compound string>
O=C(/C=C/c1ccc([N+](=O)[O-])cc1)Nc1cc(-c2ccccc2)[nH]n1

>  <Assay result>
1560

$$$$
>  <Compound string>
Cc1ccc(-c2cc(NC(=O)/C=C/c3ccc([N+](=O)[O-])cc3)n[nH]2)cc1

>  <Assay result>
1620

$$$$

According to the records, this compound O=C(/C=C/c1ccc(Br)cc1)Nc1cc(-c2ccccc2)[nH]n1 displays IC50 of 2360

According to the records, this compound O=C(/C=C\c1ccc(C(F)(F)F)cc1)Nc1cc(-c2ccccc2)[nH]n1 displays IC50 of 1340

According to the records, this compound O=C(/C=C/c1ccc(Cl)cc1)Nc1cc(-c2ccc(Br)cc2)[nH]n1 displays IC50 of 1950

====

biological target: Tubulin (Bos taurus, UniProt Q6B856+Q862L2+Q862F3); assay: Inhibition of bovine brain tubulin polymerization incubated for 20 mins by spectrophotometry
This listing pairs molecules with measured pIC50.
Output: the number by itself.

Solved cases below.
>  <Compound string>
O=C(/C=C/c1ccc([N+](=O)[O-])cc1)Nc1cc(-c2ccc(Br)cc2)[nH]n1

>  <System under test>
Tubulin (Bos taurus, UniProt Q6B856+Q862L2+Q862F3)

>  <pIC50>
5.907

$$$$
>  <Compound string>
O=C(/C=C/c1ccccc1)Nc1cc(-c2ccc(Br)cc2)[nH]n1

>  <System under test>
Tubulin (Bos taurus, UniProt Q6B856+Q862L2+Q862F3)

>  <pIC50>
5.593

$$$$
>  <Compound string>
Cc1ccc(-c2cc(NC(=O)/C=C/c3ccc(C(F)(F)F)cc3)n[nH]2)cc1

>  <System under test>
Tubulin (Bos taurus, UniProt Q6B856+Q862L2+Q862F3)

>  <pIC50>
5.815

$$$$

Next item in the queue.
According to the records, this molecule Cc1ccc(/C=C/C(=O)Nc2cc(-c3ccc(C)cc3)[nH]n2)cc1 displays pIC50 of 5.474

====

biological target: Tubulin (Bos taurus, UniProt Q6B856+Q862L2+Q862F3); assay: Inhibition of bovine brain tubulin polymerization incubated for 20 mins by spectrophotometry
Please note: IC50 exactly at 2000 nM is False. Only values below 2000 nM get True.

Below, 3 compounds whose answers are already recorded.
>  <Compound string>
O=C(/C=C/c1ccc(C(F)(F)F)cc1)Nc1cc(-c2ccc(Br)cc2)[nH]n1

>  <Assigned category>
True

$$$$
>  <Compound string>
Cc1ccc(/C=C/C(=O)Nc2cc(-c3ccccc3)[nH]n2)cc1

>  <Assigned category>
False

$$$$
>  <Compound string>
O=C(/C=C\c1ccc(F)cc1)Nc1cc(-c2ccc(Br)cc2)[nH]n1

>  <Assigned category>
True

$$$$

Report whether reported IC50 is lower than 2000 nM (strictly) for Cc1ccc(-c2cc(NC(=O)/C=C/c3ccc(Br)cc3)n[nH]2)cc1
False

Report whether reported IC50 is lower than 2000 nM (strictly) for O=C(/C=C/c1ccc([N+](=O)[O-])cc1)Nc1cc(-c2ccc(Br)cc2)[nH]n1
True

Report whether reported IC50 is lower than 2000 nM (strictly) for O=C(/C=C/c1ccccc1)Nc1cc(-c2ccc(Br)cc2)[nH]n1
False
